Subject Of Test: UniProtKB P21917
Sequence (P21917 whole entry): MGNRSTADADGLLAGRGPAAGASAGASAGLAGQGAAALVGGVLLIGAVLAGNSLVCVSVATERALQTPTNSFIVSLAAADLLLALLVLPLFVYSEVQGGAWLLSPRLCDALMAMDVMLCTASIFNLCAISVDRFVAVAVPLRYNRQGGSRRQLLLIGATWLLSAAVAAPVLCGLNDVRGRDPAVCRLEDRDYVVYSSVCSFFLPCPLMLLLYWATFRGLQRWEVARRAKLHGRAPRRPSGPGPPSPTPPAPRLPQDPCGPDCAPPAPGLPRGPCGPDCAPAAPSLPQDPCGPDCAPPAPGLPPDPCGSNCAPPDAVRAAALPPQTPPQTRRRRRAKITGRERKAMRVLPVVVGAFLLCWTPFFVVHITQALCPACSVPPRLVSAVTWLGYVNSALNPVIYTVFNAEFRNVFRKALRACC

>  <Compound>
O=c1[nH]c2ccccc2n1CCCN1CCN(c2ccc(C(F)(F)F)cn2)CC1 [Example 4]

>  <IC50>
≤ 110 nM

$$$$
